- Tested on: Bacillus subtilis DB104 (SP-AmyQ fusion secretion)
- procedure.text: AmyQ secretion efficiency, weighted average sort bin (1 = best secretion, 10 = worst) (bin number (weighted average, 1-10)); higher = lower secretion efficiency
readout.type: AmyQ secretion efficiency
One number for each entry.

# map each sequence to its AmyQ secretion efficiency
1. MFLFQVSHAIIISVMLSFVIAVFHTIHASELTP
2. MKKRLIAPMLLSAASLAFFARRKRKKAQAAAY
3. MKKRLIAPMLLSAASLAFFAMSGSSVTAGAQAAAY
4. MRPVFPIMNNILLILSAVLFLSCFFGARQTEASASKR
5. MKRLFMKASLVLFAVVFVFAVKGAPAKGETH
6. MTKRGIQAFAGGIILATAVLAAVFRLTTFDQAAAV

[6.77, 7.44, 6.18, 1.84, 2.19, 5.37]

For each of the items listed, what is its AmyQ secretion efficiency?
1. MSKGIIRFLLVSFVLFFALSTGITGVQAAPA
2. MKKRLIGFLVLVPALIMSGITLYEANKK

1. 2.19
2. 5.95

For every listed record, write down its AmyQ secretion efficiency.
1. MKSKWMSGLLLVAVGFSFTQVMVHHGET
2. MKWMCSICCAAVLLAGGAAQIEAV
3. MNLRKILLSSALSLGMLVSAAPCLATSS
4. MKKIWIGMLAAAVLLLMVPKVSLRDAA
5. MKSKWMSGLLLVAVGFSFTQVMNHAGET

1: 6.33; 2: 2.05; 3: 2.03; 4: 4.91; 5: 5.68

# batch size: 2; output AmyQ secretion efficiency per entry
1. MRMLWRSLALCGLALTLAPCAQCAEP
2. MKKAAAVLLSLGLVFDESYGAGHVAEAKTK

3.11
2.18

Data origin: the supplement of paper PMC9942255
